Experiment: Cytotoxicity (CCK-8 cell viability) and selectivity index
Type: cell-based, human
Settings: human, HepDE19 cells; cytotoxicity, concentration resulting in death of 50% of host cells
Description: HepG2.2.15 and HepDE19 are stably-transfected cell lines containing the HBV genome. […] In a cell culture model, apparent antiviral activity of a compound can be the result of host cell death after exposure to the compound. […] Five days after treatment, cell viability was measured by addition of 20 μL of CCK-8 reagent. Two hours after incubation at 37° C., the absorbance at wavelengths of 450 nm and 630 nm (OD450 and OD630) was recorded by a plate reader. […]
READOUT NAME: CC50 at 5 days (µM)
Quick note: give the figure in µM, leave out the unit.

Some entries whose results are on file:
CCOC(=O)C1=C(CN2C3COCC2C(F)(F)[C@H](CC(=O)O)C3)NC(c2nccs2)=N[C@H]1c1cccc(F)c1Cl (stereo partly shown) = 69
CCOC(=O)C(O)C1(O)CC2COCC(C1)N2CC1=C(C(=O)OC)[C@H](c2ccc(F)cc2Cl)N=C(c2nccs2)N1 (stereo partly shown) = 55
COC(=O)C1=C(CN2C3COCC2C(F)(F)c2[nH]ncc23)NC(c2nccs2)=N[C@H]1c1ccc(F)cc1Cl (stereo partly shown) = 26
COC(=O)C1=C(CN2C3CC(F)(F)C2C[C@@](O)(CC(=O)O)C3)NC(c2nccs2)=N[C@H]1c1cccc(F)c1Cl (single isomer, unassigned) = 87
CCOC(=O)C1=C(CN2C3CCC2(C(=O)O)COC3)NC(c2nccs2)=N[C@H]1c1cccc(F)c1Cl (stereo partly shown) = 65
CCOC(=O)C1=C(CN2[C@@H]3COC[C@H]2C[C@@H](NC(C)=O)C3)NC(c2nccs2)=N[C@H]1c1ccc(F)cc1Br = 60
COC(=O)C1=C(CN2C3COCC2c2conc2C3)NC(c2nccs2)=N[C@H]1c1ccc(F)cc1Cl (stereo partly shown) = 44
COC(=O)C1=C(CN2[C@@H]3COC[C@H]2C[C@H](NC(C)=O)C3)NC(c2nccs2)=N[C@H]1c1ccc(F)cc1Cl = 53

Now examine the next entry.
CC50 at 5 days reported for this molecule "COC(=O)C1=C(CN2[C@@H]3COC[C@H]2C[C@@H](NS(N)(=O)=O)C3)NC(c2nccs2)=N[C@H]1c1ccc(F)cc1Cl" : 43
